Tested on: SK-BR-3
Test details: Antiproliferative activity against human SKBR3 cells
Assay type: functional, cell-based
pIC50: −log10 of the molar value. Square brackets hold non-standard residues; d marks the D form. Peptide text beside a SMILES is read from it. * marks the point of attachment. ξ: configuration not given here. Nva(5-pentanoyl) = CCCCC(=O)CCC[C@H](N)C(=O)O; NH((S)CH(Me)CH2NHC2H4OH) = C[C@@H](CNCCO)N*; Gly(octyl) = CCCCCCCC[C@H](N)C(=O)O; Aib = CC(C)(N)C(=O)O; Butyryl = CCCC(=O)*; ξP = O=C(O)C1CCCN1; βAla = NCCC(=O)O
Metric name: pIC50

[[record]]
molecule = "CCCCCCCC[C@H](NC(=O)C(C)(C)NC(=O)C(C)(C)NC(=O)[C@H](Cc1c[nH]c2ccccc12)NC(=O)[C@@H]1CCCN1C(=O)CCC)C(=O)N[C@@H](CC(C)C)C(=O)NC(C)(C)C(=O)N[C@@H](CC(C)C)C(=O)NCCC(=O)N[C@@H](C)CNCCO (Butyryl-PW[Aib][Aib][Gly(octyl)]L[Aib]L[βAla]-{NH((S)CH(Me)CH2NHC2H4OH)})"
metric_name = "pIC50"
assay_value = 7.22

[[record]]
molecule = "CCCCCCCC[C@H](NC(=O)C(C)(C)NC(=O)C(C)(C)NC(=O)[C@H](CS)NC(=O)[C@@H]1CCCN1C(=O)CCC)C(=O)N[C@@H](CC(C)C)C(=O)NC(C)(C)C(=O)N[C@@H](CC(C)C)C(=O)NCCC(=O)N[C@@H](C)CNCCO (Butyryl-PC[Aib][Aib][Gly(octyl)]L[Aib]L[βAla]-{NH((S)CH(Me)CH2NHC2H4OH)})"
metric_name = "pIC50"
assay_value = "< 6.00"

[[record]]
molecule = "CCCCC(=O)CCC[C@H](NC(=O)C1CCCN1C(=O)CCC)C(=O)NC(C)(C)C(=O)NC(C)(C)C(=O)N[C@@H](C)C(=O)N[C@@H](CC(C)C)C(=O)NC(C)(C)C(=O)N[C@@H](CC(C)C)C(=O)NCCC(=O)N[C@@H](C)CNCCO (stereo partly drawn) (Butyryl-[ξP][Nva(5-pentanoyl)][Aib][Aib]AL[Aib]L[βAla]-{NH((S)CH(Me)CH2NHC2H4OH)})"
metric_name = "pIC50"
assay_value = "< 6.00"


----------
Below, each of the compounds is paired with its reported IC50 value.
Tested on: NCI-H460
Test details: Antiproliferative activity against human NCI-H460 cells
Assay type: functional, cell-based
Square brackets hold non-standard residues; d marks the D form. Peptide text beside a SMILES is read from it. * marks the point of attachment. ξ: configuration not given here. Nva(5-pentanoyl) = CCCCC(=O)CCC[C@H](N)C(=O)O; NH((S)CH(Me)CH2NHC2H4OH) = C[C@@H](CNCCO)N*; Gly(octyl) = CCCCCCCC[C@H](N)C(=O)O; Ac6c = NC1(C(=O)O)CCCCC1; Aib = CC(C)(N)C(=O)O; Butyryl = CCCC(=O)*; ξP = O=C(O)C1CCCN1; βAla = NCCC(=O)O
Metric name: IC50 (µM)

[[record]]
compound = "CCCCCCCC[C@H](NC(=O)C(C)(C)NC(=O)C(C)(C)NC(=O)[C@H](CCCC(=O)CCCC)NC(=O)C1CCCN1C(=O)CCC)C(=O)N[C@@H](CC(C)C)C(=O)N[C@@H](C)C(=O)N[C@@H](C)C(=O)NCCC(=O)N[C@@H](C)CNCCO (stereo partly drawn) (Butyryl-[ξP][Nva(5-pentanoyl)][Aib][Aib][Gly(octyl)]LAA[βAla]-{NH((S)CH(Me)CH2NHC2H4OH)})"
assay_value = 0.096

[[record]]
compound = "CCCCCCCC[C@H](NC(=O)C(C)(C)NC(=O)C(C)(C)NC(=O)C1(NC(=O)[C@@H]2CCCN2C(=O)CCC)CCCCC1)C(=O)N[C@@H](CC(C)C)C(=O)NC(C)(C)C(=O)N[C@@H](CC(C)C)C(=O)NCCC(=O)N[C@@H](C)CNCCO (Butyryl-P[Ac6c][Aib][Aib][Gly(octyl)]L[Aib]L[βAla]-{NH((S)CH(Me)CH2NHC2H4OH)})"
assay_value = 0.039


----------
Tested on: SK-BR-3
Test details: Antiproliferative activity against human SKBR3 cells
Format: functional, cell-based
Square brackets hold non-standard residues; d marks the D form. Peptide text beside a SMILES is read from it. * marks the point of attachment. ξ: configuration not given here. NH((S)CH(Me)CH2NHC2H4OH) = C[C@@H](CNCCO)N*; Gly(octyl) = CCCCCCCC[C@H](N)C(=O)O; Ac4c = NC1(C(=O)O)CCC1; Aib = CC(C)(N)C(=O)O; Butyryl = CCCC(=O)*; ξP = O=C(O)C1CCCN1; βAla = NCCC(=O)O
Metric name: IC50 (nM)

[[record]]
compound = "CCCCCCCC[C@H](NC(=O)C(C)(C)NC(=O)C(C)(C)NC(=O)C1(NC(=O)[C@@H]2CCCN2C(=O)CCC)CCC1)C(=O)N[C@@H](CC(C)C)C(=O)NC(C)(C)C(=O)N[C@@H](CC(C)C)C(=O)NCCC(=O)N[C@@H](C)CNCCO (Butyryl-P[Ac4c][Aib][Aib][Gly(octyl)]L[Aib]L[βAla]-{NH((S)CH(Me)CH2NHC2H4OH)})"
metric_name = "IC50"
unit_text = "nM"
assay_value = 68

[[record]]
compound = "CCCCCCCC[C@H](NC(=O)C(C)(C)NC(=O)C(C)(C)NC(=O)[C@H](C)NC(=O)C1CCCN1C(=O)CCC)C(=O)N[C@@H](CC(C)C)C(=O)NC(C)(C)C(=O)N[C@@H](CC(C)C)C(=O)NCCC(=O)N[C@@H](C)CNCCO (stereo partly drawn) (Butyryl-[ξP]A[Aib][Aib][Gly(octyl)]L[Aib]L[βAla]-{NH((S)CH(Me)CH2NHC2H4OH)})"
metric_name = "IC50"
unit_text = "nM"
assay_value = 343


----------
Test system: SK-BR-3
Test details: Antiproliferative activity against human SKBR3 cells
Type: functional, cell-based
Numbered stars: 1 amine (or outer) side, 2 acyl side, 3 side chain; on linkers, the order of the positions; unused ones are H or OH. Square brackets hold non-standard residues; d marks the D form. Peptide text beside a SMILES is read from it. * marks the point of attachment. ξ: configuration not given here. X1 = CCC(=O)C[C@H](O)C[C@@H](C)C[C@H](N[*:1])C(=O)[*:2]; Nva(5-pentanoyl) = CCCCC(=O)CCC[C@H](N)C(=O)O; NH((S)CH(Me)CH2NHC2H4OH) = C[C@@H](CNCCO)N*; Gly(octyl) = CCCCCCCC[C@H](N)C(=O)O; Aib = CC(C)(N)C(=O)O; Butyryl = CCCC(=O)*; ξP = O=C(O)C1CCCN1; βAla = NCCC(=O)O
Metric name: IC50

[[record]]
compound = "CCCCCCCC[C@H](NC(=O)C(C)(C)NC(=O)[C@H](C)NC(=O)[C@H](CCCC(=O)CCCC)NC(=O)C1CCCN1C(=O)CCC)C(=O)N[C@@H](CC(C)C)C(=O)NC(C)(C)C(=O)N[C@@H](CC(C)C)C(=O)NCCC(=O)N[C@@H](C)CNCCO (stereo partly drawn) (Butyryl-[ξP][Nva(5-pentanoyl)]A[Aib][Gly(octyl)]L[Aib]L[βAla]-{NH((S)CH(Me)CH2NHC2H4OH)})"
metric_name = "IC50"
assay_value = "0.075 µM"

[[record]]
compound = "CCCC(=O)N1CCC[C@H]1C(=O)N[C@@H](C[C@H](C)C[C@@H](O)CC(=O)CC)C(=O)NC(C)(C)C(=O)NC(C)(C)C(=O)N[C@@H](C)C(=O)N[C@@H](CC(C)C)C(=O)NC(C)(C)C(=O)N[C@@H](CC(C)C)C(=O)NCCC(=O)N[C@@H](C)CNCCO (Butyryl-P[X1][Aib][Aib]AL[Aib]L[βAla]-{NH((S)CH(Me)CH2NHC2H4OH)})"
metric_name = "IC50"
assay_value = "> 30 µM"


----------
Recorded IC50 values for a group of compounds are listed next.
Test system: NCI-H460
Test details: Antiproliferative activity against human NCI-H460 cells
Format: functional, cell-based
Numbered stars: 1 amine (or outer) side, 2 acyl side, 3 side chain; on linkers, the order of the positions; unused ones are H or OH. Square brackets hold non-standard residues; d marks the D form. Peptide text beside a SMILES is read from it. * marks the point of attachment. X1 = CCC(=O)C[C@H](O)C[C@@H](C)C[C@H](N[*:1])C(=O)[*:2]; NH((S)CH(Me)CH2NHC2H4OH) = C[C@@H](CNCCO)N*; Gly(octyl) = CCCCCCCC[C@H](N)C(=O)O; Chg = N[C@H](C(=O)O)C1CCCCC1; Nva = CCC[C@H](N)C(=O)O; Aib = CC(C)(N)C(=O)O; Butyryl = CCCC(=O)*; βAla = NCCC(=O)O
Metric name: IC50 (nM)

[[record]]
compound = "CCCCCCCC[C@H](NC(=O)C(C)(C)NC(=O)C(C)(C)NC(=O)CNC(=O)[C@@H]1CCCN1C(=O)CCC)C(=O)N[C@@H](CC(C)C)C(=O)NC(C)(C)C(=O)N[C@@H](CC(C)C)C(=O)NCCC(=O)N[C@@H](C)CNCCO (Butyryl-PG[Aib][Aib][Gly(octyl)]L[Aib]L[βAla]-{NH((S)CH(Me)CH2NHC2H4OH)})"
metric_name = "IC50"
unit_text = "nM"
value_comparator = "="
assay_value = 133

[[record]]
compound = "CCCCCCCC[C@H](NC(=O)C(C)(C)NC(=O)C(C)(C)NC(=O)[C@@H](NC(=O)[C@@H]1CCCN1C(=O)CCC)C1CCCCC1)C(=O)N[C@@H](CC(C)C)C(=O)NC(C)(C)C(=O)N[C@@H](CC(C)C)C(=O)NCCC(=O)N[C@@H](C)CNCCO (Butyryl-P[Chg][Aib][Aib][Gly(octyl)]L[Aib]L[βAla]-{NH((S)CH(Me)CH2NHC2H4OH)})"
metric_name = "IC50"
unit_text = "nM"
value_comparator = "="
assay_value = 6

[[record]]
compound = "CCCC(=O)N1CCC[C@H]1C(=O)N[C@@H](C[C@H](C)C[C@@H](O)CC(=O)CC)C(=O)NC(C)(C)C(=O)NC(C)(C)C(=O)N[C@@H](CCC)C(=O)N[C@@H](CC(C)C)C(=O)NC(C)(C)C(=O)N[C@@H](CC(C)C)C(=O)NCCC(=O)N[C@@H](C)CNCCO (Butyryl-P[X1][Aib][Aib][Nva]L[Aib]L[βAla]-{NH((S)CH(Me)CH2NHC2H4OH)})"
metric_name = "IC50"
unit_text = "nM"
value_comparator = ">"
assay_value = 1000

